# testTarget: monkey IGF-1R on COS-7 cells (monkey (African green monkey))
# assay: cell-based or functional assay
assayReadout: % internalisation (monkey IGF-1R)

binder	recordedResult
m208F2 (murine 208F2, hybridoma CNCM I-4757) (antibody, V domains shown) VH: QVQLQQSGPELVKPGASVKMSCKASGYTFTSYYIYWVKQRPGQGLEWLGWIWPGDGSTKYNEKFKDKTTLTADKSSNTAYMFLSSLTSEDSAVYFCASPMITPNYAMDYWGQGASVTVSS VL: DIQMTQTTSSLSASLGDRVTISCRASQDISKYLNWYQQQPDGTIKLLIYYTSRLHSGVPSRFSGRGSGTDYSLTISNVEQEDIATYFCQQGSTLPYTFGGGTKLEIK	74%

Item c219D6 (antibody, human IgG1, kappa, V domains shown, also called chimeric 219D6) VH: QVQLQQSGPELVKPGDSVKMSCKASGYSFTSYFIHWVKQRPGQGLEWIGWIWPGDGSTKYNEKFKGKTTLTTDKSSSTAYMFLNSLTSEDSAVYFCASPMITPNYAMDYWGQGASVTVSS VL: DIQMTQTTSSLSASLGDRVTISCRASQDISKYLNWYQQQPDGTVKLLIYYTSRLHSGVPSRFSGRGSGTDYSLTISNLEQEDIATYFCQQGSTLPYTFGGGTKLEIKR has what recorded % internalisation (monkey IGF-1R)? 74%

The reported measurements were obtained from patent US20190202901A1.
